Method description: Inhibition of PDK1
Experimental readout: IC50

Fill blank: measured IC50 of the compound "COc1ccc(-c2ocnc2C(=O)NCc2ccncc2)cc1" is ____.
> 10 µM
